Recorded log10(GI50) values (HCT-15) are given below.
A value of 2 here means GI50 of 100 in µM, since values are log10.

// known answers, use as guide
| Line notation | log10(GI50) |
| --- | --- |
| CN(C)CCCCN1c2ccccc2Sc2ccc(N=[N+]=[N-])cc21 | 0.57 |
| O=C(N/N=C\c1cccc2ccccc12)Nc1cccc2ccccc12 | 0.76 |
| CCOC(=O)c1c(O)cn2c1[nH]c1cccc3cccc2c31 | 1.74 |
| CN(C)c1ccc(/C=C2\Cc3ccccc3C2=O)cc1Br | 1.55 |

For CN(CCN1C(=O)c2cccc3cccc(c23)C1=O)CCN1C(=O)c2cccc3cccc(c23)C1=O on HCT-15, measured log10(GI50) was -0.75

* * *

- System: HCT-15
Measurement label: log10(GI50) (log10 of the value in µM)
A value of 2 here means GI50 of 100 in µM, since values are log10.

| Compound | Target under test | log10(GI50) |
| --- | --- | --- |
| Cc1ccc(N/C(SCc2ccccc2)=C(\C(Cl)=C(Cl)Cl)[N+](=O)[O-])c(C)c1 | HCT-15 | 1.25 |
| Cc1c(Cl)nc(Cl)nc1Cl | HCT-15 | -0.54 |
| CC(C)C1=CC23CCC4C(C)(C(=O)O)CCCC4(C)C2CC1C1C(=O)N(c2ccc(Cc4ccc(N5C(=O)C6C7CC8C9(C)CCCC(C)(C(=O)O)C9CCC8(C=C7C(C)C)C6C5=O)cc4)cc2)C(=O)C13 (stereo unspecified) | HCT-15 | 1.03 |
| [O-][n+]1ccccc1S [PYRITHIONE ZINC] | HCT-15 | -0.24 |
| CCCCC/C=C\C=C1\C(=O)C=C[C@@H]1C/C=C\CCCC(=O)O | HCT-15 | 0.72 |
| Nc1nc2c(ncn2C2OC(CO)C(O)C2O)c(=O)o1 (stereo unspecified) | HCT-15 | 1.63 |
| Cn1c(=O)c2c(nc(N/N=C3/SCC(=O)N3Cc3ccccc3)n2C)n(C)c1=O | HCT-15 | 1.93 |
| CC1C=CC(=O)C(n2cc(F)c(=O)[nH]c2=O)O1 (stereo unspecified) | HCT-15 | 1.22 |
| CCC1=CCN(c2cc(C)ccn2)OC1c1ccc(OC)cc1 (stereo unspecified) | HCT-15 | 1.44 |
| COC1/C=C/C(C)C(C(C)C(OC)C(C)CCC(=O)C(C)C(C/C=C/N(C)C=O)OC)OC(=O)C=CC2OC2(C)CC(OC)C(OC)C2=CC(=O)O[C@@H](C(C)C(OC)CC(OC)/C=C/C(C)C(O)C1)[C@H]2O (stereo partly specified) | HCT-15 | -2.20 |

Looking up CCCCCCCCCC[C@@H](O)[C@H]1CC[C@@H]([C@H]2CC[C@H]([C@H](O)CCCCCCCCCC[C@@H]3CC(CC(C)=O)C(=O)O3)O2)O1 (stereo partly specified) , I found its log10(GI50) recorded as 0.71

Looking up O=C(NNc1ccccc1)c1ccc(Cl)c(Cl)c1 , I found its log10(GI50) recorded as 1.19

Looking up CCCCSCC(NC(=O)/C=C/c1c(C)[nH]c(=O)[nH]c1=O)C(=O)OC (stereo unspecified) , I found its log10(GI50) recorded as 2.17

Looking up COc1ccc(-c2[nH]c3ccccc3c2CCNS(=O)(=O)c2ccc(C)cc2)cc1 , I found its log10(GI50) recorded as 0.88

Looking up CCCCCC(CN1CCOCC1)C(=O)/C=C/c1ccccc1 (stereo unspecified) , I found its log10(GI50) recorded as 0.31

Looking up Cn1nc(C(=O)N2CC(CCl)c3c2cc(N)c2ccccc32)cc1NC(=O)Nc1cc(C(=O)N2CC(CCl)c3c2cc(N)c2ccccc32)nn1C (stereo unspecified) , I found its log10(GI50) recorded as 1.65

Looking up O=C1CCC(=O)N1CNc1cccc(NCN2C(=O)CCC2=O)c1 , I found its log10(GI50) recorded as 1.79

Looking up Cc1nc(Nc2ccc(Cl)cc2)sc1C(=O)NNC(=S)NN , I found its log10(GI50) recorded as 1.31

* * *

Listed next: entries and their corresponding GI50.
- Test system: NCI-H460
- Assay comment: NCI tumour cell line growth inhibition, 48 h
Activity calls are given as the source filed them. Cut-off read from the data, not from the text of the source: active = GI50 up to about 1.1 µM and inactive = higher.

// known answers, use as guide
| Compound | Target under test | GI50 |
| --- | --- | --- |
| CC(=O)Nc1ccc(S(=O)(=O)NN(C)S(=O)(=O)c2ccc(C)cc2)cc1 | NCI-H460 | > 100 µM (inactive) |
| CC(=O)OC[C@]1(C(=O)C(O)c2ccoc2)[C@H](C)CC[C@@]23COC(=O)C2=CCC[C@@H]31 (some centres undefined) | NCI-H460 | > 10 µM (inactive) |
| O=C1CCC(=O)c2ccccc2N1 | NCI-H460 | > 100 µM (inactive) |

For CCOC(=O)C1=C(Nc2ccccc2)OC/C1=N\NC(=O)Cc1ccccc1 on NCI-H460, measured GI50 was > 50 µM (inactive)

* * *

Listed next: entries and their corresponding GI50.
- Tested on: SK-MEL-28
- Assay comment: NCI tumour cell line growth inhibition, 48 h
Calls of active or inactive are those of the source. No stated cut-off is given here; in the data, active = GI50 up to about 1.1 µM and inactive = higher.

// known answers, use as guide
| Compound | GI50 |
| --- | --- |
| COc1ccc(C2C(C#N)=C(S)N(C3OC(CO)C(O)C(O)C3O)C(C)=C2C(C)=O)cc1 (stereo not given) | > 100 µM (inactive) |
| CCCCN1C(=O)C2Cc3c([nH]c4ccccc34)C(c3cccc(O)c3)N2C1=O (stereo not given) | 19 µM (inactive) |
| COc1ccc(NC2=NCCO2)c2ccccc12 | > 10 µM (inactive) |
| O=C(CCCN1CCC2(CC1)/C(=N/C1CCCCC1)NC(=O)N2c1ccccc1)c1ccc(F)cc1 | 18.6 µM (inactive) |

Then this compound:
Looking up [N-]=[N+]=NCc1nc(N)c2c3c(sc2n1)CCCC3 , I found its GI50 recorded as 7.16 µM (inactive)

* * *

- Test system: DU-145
- Assay comment: NCI tumour cell line growth inhibition, 48 h
Activity calls are given as the source filed them. Cut-off read from the data, not from the text of the source: active = GI50 up to about 1.1 µM and inactive = higher.
Measurement label: GI50

// known answers, use as guide
| Molecule | GI50 |
| --- | --- |
| COc1ccc(C2Oc3c(OC)cc(CCCO)cc3C2CO)cc1OC (stereo not given) | > 100 µM (inactive) |
| Cn1cc(C(=O)c2nccc3c2cnc2ccccc23)ccc1=O | > 100 µM (inactive) |
| Nc1nc(=S)[nH]c2nc3c(c(-c4ccccc4)c12)CCCC3 | > 100 µM (inactive) |
| COC(=O)c1c(O)ccc2[nH]c3c(O)c4ccccc4cc3c12 | 20 µM (inactive) |
| Fc1ccccc1C1SCc2nc3cc4ccccc4cc3n21 (stereo not given) | 60.8 µM (inactive) |

For CC(C)=CCC/C(C)=C/CC/C(C)=C/CC/C(=C/CC/C(C)=C\CC/C(C)=C/CC/C(C)=C/CC/C(C)=C/Cc1cc(O)ccc1O)CO on DU-145, measured GI50 was 32.6 µM (inactive)

For NCCCNC1(c2cc3ccccc3s2)CCCCC1 on DU-145, measured GI50 was 12 µM (inactive)

* * *

- System: SNB-75
- Assay comment: NCI tumour cell line growth inhibition, 48 h
Activity calls are given as the source filed them. No stated cut-off is given here; in the data, active = GI50 up to about 1.1 µM and inactive = higher.
Measurement label: GI50

| Compound | GI50 |
| --- | --- |
| CC1=C(C(=O)Nc2c(C)cccc2C)C(c2ccc3c(c2)OCO3)C(C(=O)Nc2c(C)cccc2C)=C(C)N1 | 17.8 µM (inactive) |

Looking up COC(=O)c1cc2c(cc1CC(Cc1ccc3c(c1)CCCC3)C(=O)OC)CCCC2 (stereo not given) , I found its GI50 recorded as 64.4 µM (inactive)

* * *

- Tested on: LXFL 529
- Assay comment: NCI tumour cell line growth inhibition, 48 h
Active and inactive are the calls of the source. Cut-off read from the data, not from the text of the source: active = GI50 up to about 1.1 µM and inactive = higher.
Pick one: class 1 for active, class 0 for inactive

Examples with answers:
| Molecule | Cat |
| --- | --- |
| NC1=NS(=O)(=O)Nc2nc(-c3ccc(Cl)cc3)c(-c3ccc(Cl)cc3)nc21 | class 0 |
| CC(=O)OC(C)(C)C[N+](=O)[O-] | class 0 |
| COC(=O)C1[C@@H](C(=O)OC)C(=O)O[C@H]1c1cc(OC)c(OC)c(OC)c1 (some centres undefined) | class 0 |

[in] Returns: the outcome recorded for CC(=O)NC1C(OCc2ccccc2)OC(CO)C(O)C1OC(C)C(=O)NC(C)C(=O)N[C@@H](CCC(=O)OCCCNC1c2ccccc2Nc2cccc([N+](=O)[O-])c21)C(N)=O (some centres undefined) in this assay.
[out] class 1

* * *

- Tested on: SK-MEL-2
- Assay comment: NCI tumour cell line growth inhibition, 48 h
Calls of active or inactive are those of the source. No stated cut-off is given here; in the data, active = GI50 up to about 1.1 µM and inactive = higher.
Pick one: active, inactive

Examples with answers:
| Compound | Target under test | Cat |
| --- | --- | --- |
| CN(CCN1C(=O)c2cccc3cccc(c23)C1=O)CCN1C(=O)c2cccc3cccc(c23)C1=O | SK-MEL-2 | inactive |
| CN(C)CCCCN1c2ccccc2Sc2ccc(N=[N+]=[N-])cc21 | SK-MEL-2 | inactive |
| COc1ccn(CC(=O)c2cc3ccccc3[nH]2)c(=O)n1 | SK-MEL-2 | inactive |

[in] Returns: the outcome recorded for Sc1nn2c(Cc3ccccc3)nnc2s1 in this assay.
[out] inactive

[in] Returns: the outcome recorded for CC(=O)c1sc2c(c1OC(=O)c1ccc(Cl)cc1Cl)c(=O)n(-c1ccccc1)c(=S)n2-c1ccccc1 in this assay.
[out] active

[in] Returns: the outcome recorded for COC(=O)Cc1cc(O)c(C/C=C(\C)CC/C=C(\C)C(O)C(=O)C=C(C)C)cc1O (stereo not given) in this assay.
[out] inactive

[in] Returns: the outcome recorded for Cn1c(=O)n2n(c1=O)Cc1cccc3cccc(c13)C2 in this assay.
[out] inactive

[in] Returns: the outcome recorded for Fc1ccccc1C1SCc2nc3cc4ccccc4cc3n21 (stereo not given) in this assay.
[out] inactive

[in] Returns: the outcome recorded for O=C(O)Cc1ccc2nc(COC(=O)c3ccccc3)sc2c1 in this assay.
[out] inactive

[in] Returns: the outcome recorded for [N-]=[N+]=NC1C(Cl)C(=O)NC(=O)N1[C@H]1C[C@H](O)[C@@H](CO)O1 (stereo not given in full) in this assay.
[out] inactive
